Biological target: Cytosolic phospholipase A2 (Homo sapiens)
Sequence (whole entry): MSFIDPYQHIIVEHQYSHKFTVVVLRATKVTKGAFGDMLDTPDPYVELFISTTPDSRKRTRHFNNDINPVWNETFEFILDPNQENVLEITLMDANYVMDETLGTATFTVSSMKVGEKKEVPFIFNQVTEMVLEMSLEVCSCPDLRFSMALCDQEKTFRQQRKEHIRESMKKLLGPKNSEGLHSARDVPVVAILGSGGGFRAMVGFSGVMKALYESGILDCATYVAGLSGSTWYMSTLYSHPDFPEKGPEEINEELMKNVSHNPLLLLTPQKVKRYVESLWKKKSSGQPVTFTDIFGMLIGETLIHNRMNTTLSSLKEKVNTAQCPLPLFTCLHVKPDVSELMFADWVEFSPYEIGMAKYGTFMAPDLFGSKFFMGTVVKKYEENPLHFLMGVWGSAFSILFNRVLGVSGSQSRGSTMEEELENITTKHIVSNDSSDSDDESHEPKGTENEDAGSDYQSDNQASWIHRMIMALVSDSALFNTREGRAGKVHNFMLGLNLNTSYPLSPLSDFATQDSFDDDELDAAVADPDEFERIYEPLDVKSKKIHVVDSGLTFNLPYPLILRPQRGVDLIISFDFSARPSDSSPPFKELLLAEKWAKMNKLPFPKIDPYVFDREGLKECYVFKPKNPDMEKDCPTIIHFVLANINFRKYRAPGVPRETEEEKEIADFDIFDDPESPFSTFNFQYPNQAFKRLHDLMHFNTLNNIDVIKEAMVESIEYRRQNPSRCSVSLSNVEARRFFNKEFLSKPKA
Experiment: Inhibition of cPLA2 from human platelets at 10 uM by RP-HPLC
Active and inactive are the calls of the source. The calls are words filed in the database; no cut-off is given here.
MEASURE: inhibition

Before answering, review these 5 worked examples.
CCCCCCCCc1ccc(OCC(=O)Cn2cccn2)cc1
43%
CCCCCCCCc1ccc(OCC(=O)Cn2ncc3ccccc32)cc1
inactive
CCCCCCCCc1ccc(OCC(=O)Cn2ccc3cc(C)ccc32)cc1
inactive
O=C(CCCCCc1ccccc1)c1nc2ncccc2o1
inactive
CCCCCCCCc1ccc(OCC(=O)Cn2ccc3cc(OC)ccc32)cc1
inactive

Give inhibition for all compounds that follow.
1. CCCCCCCCc1ccc(OCC(=O)Cn2cccc2C(=O)O)cc1
2. CCCCCCCCc1ccc(OCC(=O)Cn2cncc2C(=O)O)cc1
3. CCCCCCCCc1ccc(OCC(=O)Cn2nccc2C(=O)O)cc1
4. NC(=O)c1cccc(-c2cccc(OC(=O)NC3CCCCC3)c2)c1
5. CCCCCCCCc1ccc(OCC(=O)Cn2cnc3ccccc32)cc1

Output:
["inactive", "18%", "21%", "inactive", "36%"]

# per-item lookup of inhibition; items listed below
1. CCCCCCCCc1ccc(OCC(=O)Cn2cccc2)cc1
2. CCCCCCCCc1ccc(OCC(=O)Cn2ccc3ccccc32)cc1
3. CCCCCCCCc1ccc(OCC(=O)Cn2c(C(=O)O)cc3ccccc32)cc1
4. CCCCCCCCc1ccc(OCC(=O)Cn2ccc3cc(Cl)ccc32)cc1

Output:
1. inactive
2. inactive
3. inactive
4. inactive

These measurements were taken from ChEMBL document CHEMBL1157719.
